The measured values listed here are drawn from patent US20180244785A1.

# targetOrTestSystem: FGFR1 on tumour cells (UniProt P11362 22-822)
# Sequence (P11362 22-822): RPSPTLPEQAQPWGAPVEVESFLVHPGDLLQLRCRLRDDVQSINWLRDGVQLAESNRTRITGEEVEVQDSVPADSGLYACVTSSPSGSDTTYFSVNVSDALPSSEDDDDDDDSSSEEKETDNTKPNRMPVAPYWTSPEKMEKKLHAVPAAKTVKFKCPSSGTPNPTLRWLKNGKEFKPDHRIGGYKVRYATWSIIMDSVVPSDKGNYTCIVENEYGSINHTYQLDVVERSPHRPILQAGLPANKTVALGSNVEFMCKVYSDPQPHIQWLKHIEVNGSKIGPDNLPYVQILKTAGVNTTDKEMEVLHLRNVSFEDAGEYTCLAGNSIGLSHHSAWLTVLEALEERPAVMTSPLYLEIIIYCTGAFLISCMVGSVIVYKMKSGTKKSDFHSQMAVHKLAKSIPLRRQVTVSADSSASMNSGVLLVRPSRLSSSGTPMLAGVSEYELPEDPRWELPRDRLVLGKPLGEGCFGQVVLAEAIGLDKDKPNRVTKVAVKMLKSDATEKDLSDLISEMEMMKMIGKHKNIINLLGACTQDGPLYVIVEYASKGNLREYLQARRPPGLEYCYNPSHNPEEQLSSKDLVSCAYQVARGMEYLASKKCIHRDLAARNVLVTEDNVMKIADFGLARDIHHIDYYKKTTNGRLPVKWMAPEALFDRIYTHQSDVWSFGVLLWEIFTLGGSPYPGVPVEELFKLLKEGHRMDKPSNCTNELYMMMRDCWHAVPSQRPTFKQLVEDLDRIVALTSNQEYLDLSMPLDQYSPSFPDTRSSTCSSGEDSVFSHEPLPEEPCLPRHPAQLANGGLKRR
# assayMethodText: cell-based or functional assay
valueKind: IC50 of pERK inhibition (AlphaScreen SureFire) in NCI-H1581 cells

[[record]]
binder = "Ab60 (antibody, human IgG2, kappa, V domains shown, format in the assays not spelled out) VH: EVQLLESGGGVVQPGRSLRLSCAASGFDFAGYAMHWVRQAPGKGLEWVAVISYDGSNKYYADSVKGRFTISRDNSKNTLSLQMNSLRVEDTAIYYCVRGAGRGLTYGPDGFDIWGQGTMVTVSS VL: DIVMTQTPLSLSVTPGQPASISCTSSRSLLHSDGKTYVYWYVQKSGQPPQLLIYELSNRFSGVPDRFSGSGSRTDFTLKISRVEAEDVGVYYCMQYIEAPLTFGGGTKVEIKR"
val = "0.385 nM"

[[record]]
binder = "Ab21 (antibody, human IgG2, kappa, V domains shown, format in the assays not spelled out) VH: EVQLLESGGGVVQPGRSLRLSCAASGFTFSSYAMHWVRQAPGKGLEWVAVISYDGSNKYYADSVKGRFTISRDNSKNTLSLQMNSLRVEDTAIYYCVRGAGLGWPYGPDGFDIWGQGTMVTVSS VL: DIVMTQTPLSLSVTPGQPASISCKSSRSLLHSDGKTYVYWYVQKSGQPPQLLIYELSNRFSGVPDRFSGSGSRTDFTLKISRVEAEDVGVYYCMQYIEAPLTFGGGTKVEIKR"
val = "1.31 nM"

[[record]]
binder = "Ab25 (antibody, human IgG2, kappa, V domains shown, format in the assays not spelled out) VH: EVQLLESGGGVVQPGRSLRLSCAASGFTFSSYAMHWVRQAPGKGLEWVAVISYDGSNKYYADSVKGRFTISRDNSKNTLSLQMNSLRVEDTAIYYCVRGAGLGFTYGPDGFDIWGQGTMVTVSS VL: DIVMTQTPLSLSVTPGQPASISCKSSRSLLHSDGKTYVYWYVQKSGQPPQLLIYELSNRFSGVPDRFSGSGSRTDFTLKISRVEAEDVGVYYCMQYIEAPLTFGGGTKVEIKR"
val = "1.64 nM"

